Where these numbers come from: paper PMC6718736

Test system: CYP3A4
protocol_details: CYP3A4 enzyme induction assay in cryopreserved primary human hepatocytes (PHH)
measurement_context: PHH; Lab 1; batch 4 0 8
Where a name gives a salt, the structure may show the parent alone.
experimental_readout: Assigned classification CYP3A4
Answers are plain numbers.

Quick request: Assigned classification CYP3A4 for each listed item, please.
1. CC(C)NCC(O)c1ccc(NS(C)(=O)=O)cc1 (stereo not shown) [Sotalol hydrochloride]
2. COc1ccc2[nH]c([S+]([O-])Cc3ncc(C)c(OC)c3C)nc2c1 (stereo not shown) [Omeprazole]
3. COc1ccccc1Oc1c(NS(=O)(=O)c2ccc(C(C)(C)C)cc2)nc(-c2ncccn2)nc1OCCO [Bosentan hydrate]
4. O=C1NC(=O)C(c2ccccc2)(c2ccccc2)N1 [Phenytoin sodium]
5. O=C1Nc2ccc(Cl)cc2[C@@](C#CC2CC2)(C(F)(F)F)O1 [Efavirenz]
6. NC(=O)N1c2ccccc2C=Cc2ccccc21 [Carbamazepine]

Result:
0
0
1
0
1
1

Lab book: Assigned classification CYP3A4 of COCCc1ccc(OCC(O)CNC(C)C)cc1 (stereo not shown) [Metoprolol] noted as 0
